Reference for the values: ChEMBL document CHEMBL1201862

Entries annotated with measured GI50
# Tested on: OVCAR-8
# Measurement protocol: NCI tumour cell line growth inhibition, 48 h
Calls of active or inactive are those of the source. Cut-off read from the data, not from the text of the source: active = GI50 up to about 1.1 µM and inactive = higher.

// below: answered compounds
[N-]=[N+]=NCC1OC(n2cnc3c(N)ncnc32)C2OC12 (stereo unspecified)    > 100 µM (inactive)
CCCCCCCCCCCCCCCc1nnc(SCC(=O)O)[nH]1    40.8 µM (inactive)
O=C1NC(=O)/C(=C/c2ccc(S(=O)(=O)N/N=C/c3ccc(Cl)cc3)cc2)N1    > 100 µM (inactive)
N#Cc1c(Cl)c(C=O)c(=O)n2c1[nH]c1ccccc12    42.1 µM (inactive)
COc1ccc(C2Cc3cc(OC)c(OC)c(OC)c3C2=O)cc1 (stereo unspecified)    > 100 µM (inactive)

Next compound, GI50 to be filled in.
Input line: Give its GI50 value. Item: CC1(O)CCC2(C)C(=O)C1(C)CCC21OCCO1 (stereo unspecified)
Output line: > 100 µM (inactive)

====

# System: NCI-H23
# Measurement protocol: NCI tumour cell line growth inhibition, 48 h
The source made the active and inactive calls. Cut-off read from the data, not from the text of the source: active = GI50 up to about 1.1 µM and inactive = higher.
Entries annotated with measured GI50

Input line: Give its GI50 value. Item: CC(=O)OCC1CCC(=C2C(=O)OC(C)(C)OC2=O)N1 (stereo not given)
Output line: > 100 µM (inactive)

Input line: Give its GI50 value. Item: COc1ccc(-c2c(C#N)c(N)n(C3OC(CO)C(O)C(O)C3O)c(=S)c2C#N)cc1 (stereo not given)
Output line: > 100 µM (inactive)

Input line: Give its GI50 value. Item: CC[C@H](C)c1occ2c(O)c(C(=O)O)c(=O)cc-2c1C
Output line: 21.4 µM (inactive)

Input line: Give its GI50 value. Item: NC(CCCCNC(=O)OCc1ccccc1)C(=O)NC(CCCCNC(=O)OCc1ccccc1)C(=O)ON1C(=O)CCC1=O (stereo not given)
Output line: > 100 µM (inactive)

Input line: Give its GI50 value. Item: COC(=O)C(CC(=O)Nc1ccc(C)cc1)C(=O)C(=O)Nc1ccccc1C(C)C (stereo not given)
Output line: > 100 µM (inactive)

====

# Test system: SF-295
# Measurement protocol: NCI tumour cell line growth inhibition, 48 h
The source made the active and inactive calls. Rule as the data show it: active = GI50 up to about 1.1 µM and inactive = higher.
Value kind: GI50

// below: answered compounds
O=[N+]([O-])/C(C(Cl)=C(Cl)Cl)=C(\Nc1cccc2ccccc12)Sc1ccccc1    15.2 µM (inactive)
Cc1c(/C=N/NC(=S)N2CCCCC2)c(=O)n(-c2ccccc2)n1C    40.7 µM (inactive)
COC(=O)c1ccc2c(c1)sc1nc(-c3ccc(OC)cc3)cn12    > 100 µM (inactive)
CC(=O)[C@@H](C)C(=O)N1C(=O)OC[C@@]12[C@@H]1CC[C@@H](C1)C2(C)C    > 100 µM (inactive)
Fc1ccc2c(c1)nc1n2C(c2c(F)cccc2F)SC1 (stereo not given)    30 µM (inactive)

Input line: Give its GI50 value. Item: CC(=O)NS(=O)(=O)c1ccc(NCc2cccc3c(=O)c4ccc(Cl)cc4oc23)cc1
Output line: 51.4 µM (inactive)

Input line: Give its GI50 value. Item: COC(=O)C1CC(C=[N+](C)C)=C(SC)N1C(=O)OCc1ccccc1 (stereo not given)
Output line: > 100 µM (inactive)

Input line: Give its GI50 value. Item: Cc1cc(=O)oc2c(C)c(O)ccc12
Output line: > 100 µM (inactive)

Input line: Give its GI50 value. Item: CC(=O)Nc1ccc(/N=C2\C(c3ccccc3)=C(SC3=C(c4ccccc4)/C(=N\c4ccc(NC(C)=O)cc4)c4ccccc43)c3ccccc32)cc1
Output line: 31 µM (inactive)

Input line: Give its GI50 value. Item: CCN(c1ccccc1)[C@H]1C(=O)N(c2ccc([N+](=O)[O-])cc2)[C@H]1c1ccc(OC)cc1
Output line: 52.5 µM (inactive)

====

# Tested on: HCT-15
Entries annotated with measured GI50
Provide only the numeric value, understood in µM.

// below: answered compounds
Cc1cc(N(CCC#N)CCC#N)ccc1C(/N=N\c1ccc([N+](=O)[O-])cc1)=N\NC(=O)c1cc(Cl)ccc1O    29.6
COc1cc2c(cc1OCCN1C(=O)c3cccc4cccc(c34)C1=O)N=C[C@@H]1CCCN1C2=O    9.31
Fc1ccc2c(c1)nc1n2C(c2c(F)cccc2F)SC1 (stereo not given)    38.3
C=CCCCC1CCCNC1=O (stereo not given)    19
C[C@]12CC[C@H]3[C@@H](CC=C4C[C@@H](N5CCCC5)CC[C@@]43C)[C@@H]1C[C@H](N1CCCCC1)[C@@H]2O    33.8

Input line: Give its GI50 value. Item: COc1ccc2c(c1OC)C[C@@H]1c3c(cc4c(c3-2)OCO4)CCN1C
Output line: 22.6

Input line: Give its GI50 value. Item: CC(C)CC(NC(=O)c1cccc(O)c1O)C(=O)NCc1cc(CNC(=O)C(CC(C)C)NC(=O)c2cccc(O)c2O)cc(CNC(=O)C(CC(C)C)NC(=O)c2cccc(O)c2O)c1 (stereo not given)
Output line: 23.1

Input line: Give its GI50 value. Item: O=C1NC(=O)C2C3C=CC(C12)C1C2C(=O)NC(=O)C2C31 (stereo not given)
Output line: 237

Input line: Give its GI50 value. Item: CN(C1=NCCO1)c1cccc2c1CCCC2
Output line: 3.48

====

# Test system: NCI-H23
# Measurement protocol: NCI tumour cell line growth inhibition, 48 h
Calls of active or inactive are those of the source. Cut-off read from the data, not from the text of the source: active = GI50 up to about 1.1 µM and inactive = higher.
Just give me one of these, please: active, inactive

Illustrative cases are given below, each with its answer.
COc1ccc(/C(=N\NC(=O)C(=O)NN)C(c2ccc(OC)cc2)C2(O)C(=O)Nc3ccccc32)cc1 (centres undefined)    inactive
COS(=O)(=O)OCCC(NC(=O)OCc1ccccc1)C(=O)OCc1ccccc1 (centres undefined)    inactive
O=C(O)[C@@H]1C[C@@H](O)CN1    inactive

From here, focus on the item given below.
Input line: So what was the verdict on C/C(=N\NC(=S)N1CCN(c2ccccn2)CC1)c1cccc2cccnc12 in this test?
Output line: inactive

====

# System: M14
# Measurement protocol: NCI tumour cell line growth inhibition, 48 h
The source made the active and inactive calls. No stated cut-off is given here; in the data, active = GI50 up to about 1.1 µM and inactive = higher.
Value kind: GI50

// below: answered compounds
CN(C)c1ncnc2c1ncn2C1C=CC(COS(N)(=O)=O)C1 (centres undefined)    > 100 µM (inactive)
C=CC(C)(C)n1cc(C2=C3OC(=O)C(c4cn(C(C)(C)C=C)c5ccccc45)=C3OC2=O)c2ccccc21    > 100 µM (inactive)
CC1=C(CO)C(=O)O[C@@H]([C@@H](CO)[C@H]2CCC3C4C[C@@H](O)[C@@]5(O)CC=CC(=O)[C@]5(C)C4CC[C@@]32C)C1 (some centres undefined)    53.7 µM (inactive)
NC(C/C=C/P(=O)(O)O)C(=O)O (centres undefined)    > 100 µM (inactive)

Input line: Give its GI50 value. Item: COc1ccc(-c2cc(-c3cc(C)ccc3O)nc(O)n2)cc1
Output line: > 100 µM (inactive)

Input line: Give its GI50 value. Item: COc1cc2c[n+](C)c3c4cc(OC)c(OCc5ccccc5)cc4c(OCc4ccccc4)cc3c2cc1OC
Output line: 9.66 µM (inactive)

Input line: Give its GI50 value. Item: CC1=C(C(=O)Nc2cc(F)c(F)cc2F)C(c2cccc([N+](=O)[O-])c2)C(C(=O)Nc2ccccc2C(F)(F)F)=C(C)N1 (centres undefined)
Output line: 22.8 µM (inactive)

Input line: Give its GI50 value. Item: COC(=O)Nc1nc2cc(NS(=O)(=O)c3cccs3)ccc2[nH]1
Output line: 21.5 µM (inactive)

Input line: Give its GI50 value. Item: CC(=O)c1ccc2c(ccc(=O)n2C)c1
Output line: > 100 µM (inactive)

====

# System: EKVX
# Measurement protocol: NCI tumour cell line growth inhibition, 48 h
Activity calls are given as the source filed them. No stated cut-off is given here; in the data, active = GI50 up to about 1.1 µM and inactive = higher. Where a SMILES comes first, the peptide text is derived from it. [ ]: non-standard residue; d: D form. The star is where a group is joined. ξ: configuration not given here. ξD = NC(CC(=O)O)C(=O)O; Boc = CC(C)(C)OC(=O)*; Aib = CC(C)(N)C(=O)O; OtBu = CC(C)(C)O*
Entries annotated with measured GI50

// below: answered molecules
NC(=S)NNC(=O)/C(=C/c1ccc(/C=C(\NC(=O)c2ccccc2)C(=O)NNC(N)=S)cc1)NC(=O)c1ccccc1    > 100 µM (inactive)
C=CC[C@]12C=C(OC)[C@@H](O)[C@](OC)(C(c3cc(OC)c4c(c3)OCO4)[C@H]1C)[C@H]2OC(C)=O (stereo partly drawn)    > 100 µM (inactive)
CCN(CC)CCNC(=O)c1ccccc1NC(=O)C(=O)Nc1ccccc1C(=O)NCCN(CC)CC    > 100 µM (inactive)

Input line: Give its GI50 value. Item: COC(=O)C(C)(C)NC(=O)C(C)(C)NC(=O)C(CC(=O)OC(C)(C)C)NC(=O)OC(C)(C)C (stereo not drawn) (Boc-[ξD](OtBu)-[Aib]-[Aib]-OMe)
Output line: > 100 µM (inactive)

Input line: Give its GI50 value. Item: CN(C1=NCCO1)c1cccc2c1CCCC2
Output line: 8.55 µM (inactive)
